Settings: in acetone, 303.15 K
measuredMetric: solubility (mole fraction)
Respond with the number and no other words.

Qu. # return recorded solubility (mole fraction) for input CC1=NN(c2ccccc2)C(=O)C1
Ans. 0.0371

###

Settings: in n-pentanol, 303.15 K
measuredMetric: solubility (mole fraction)
Respond with the number and no other words.

Qu. # return recorded solubility (mole fraction) for input CC1=NN(c2ccccc2)C(=O)C1
Ans. 0.0381

###

Conditions: in acetone, 293.15 K
measuredMetric: solubility (mole fraction)
Respond with the number and no other words.

Qu. # return recorded solubility (mole fraction) for input CC1=NN(c2ccccc2)C(=O)C1
Ans. 0.0254

###

Conditions: in n-butanol, 303.15 K
measuredMetric: solubility (mole fraction)

Qu. # return recorded solubility (mole fraction) for input CC1=NN(c2ccccc2)C(=O)C1
Ans. 0.0372

###

Conditions: in methanol, 303.15 K
measuredMetric: solubility (mole fraction)

Qu. # return recorded solubility (mole fraction) for input CC1=NN(c2ccccc2)C(=O)C1
Ans. 0.0402

###

Settings: in ethanol, 303.15 K
measuredMetric: solubility (mole fraction)
Respond with the number and no other words.

Qu. # return recorded solubility (mole fraction) for input CC1=NN(c2ccccc2)C(=O)C1
Ans. 0.0339

###

Settings: in isobutanol, 283.15 K
measuredMetric: solubility (mole fraction)
Respond with the number and no other words.

Qu. # return recorded solubility (mole fraction) for input CC1=NN(c2ccccc2)C(=O)C1
Ans. 0.0153

###

Conditions: in 1,4-dioxane, 293.15 K
measuredMetric: solubility (mole fraction)
Respond with the number and no other words.

Qu. # return recorded solubility (mole fraction) for input CC1=NN(c2ccccc2)C(=O)C1
Ans. 0.0341

###

Details: in n-pentanol, 293.15 K
measuredMetric: solubility (mole fraction)
Respond with the number and no other words.

Qu. # return recorded solubility (mole fraction) for input CC1=NN(c2ccccc2)C(=O)C1
Ans. 0.0285

###

Conditions: in methanol, 283.15 K
measuredMetric: solubility (mole fraction)

Qu. # return recorded solubility (mole fraction) for input CC1=NN(c2ccccc2)C(=O)C1
Ans. 0.0194

###

Details: in n-butanol, 313.15 K
measuredMetric: solubility (mole fraction)

Qu. # return recorded solubility (mole fraction) for input CC1=NN(c2ccccc2)C(=O)C1
Ans. 0.0504

###

Conditions: in ethyl acetate, 323.15 K
measuredMetric: solubility (mole fraction)
Respond with the number and no other words.

Qu. # return recorded solubility (mole fraction) for input CC1=NN(c2ccccc2)C(=O)C1
Ans. 0.0545

###

Settings: in ethanol, 293.15 K
measuredMetric: solubility (mole fraction)

Qu. # return recorded solubility (mole fraction) for input CC1=NN(c2ccccc2)C(=O)C1
Ans. 0.024

###

Conditions: in acetone, 283.15 K
measuredMetric: solubility (mole fraction)
Respond with the number and no other words.

Qu. # return recorded solubility (mole fraction) for input CC1=NN(c2ccccc2)C(=O)C1
Ans. 0.0167

###

Details: in 1,4-dioxane, 313.15 K
measuredMetric: solubility (mole fraction)
Respond with the number and no other words.

Qu. # return recorded solubility (mole fraction) for input CC1=NN(c2ccccc2)C(=O)C1
Ans. 0.0669

###

Conditions: in methanol, 293.15 K
measuredMetric: solubility (mole fraction)
Respond with the number and no other words.

Qu. # return recorded solubility (mole fraction) for input CC1=NN(c2ccccc2)C(=O)C1
Ans. 0.0278

###

Settings: in n-butanol, 293.15 K
measuredMetric: solubility (mole fraction)
Respond with the number and no other words.

Qu. # return recorded solubility (mole fraction) for input CC1=NN(c2ccccc2)C(=O)C1
Ans. 0.0272

###

Conditions: in acetonitrile, 313.15 K
measuredMetric: solubility (mole fraction)
Respond with the number and no other words.

Qu. # return recorded solubility (mole fraction) for input CC1=NN(c2ccccc2)C(=O)C1
Ans. 0.0284

###

Conditions: in water, 323.15 K
measuredMetric: solubility (mole fraction)
Respond with the number and no other words.

Qu. # return recorded solubility (mole fraction) for input CC1=NN(c2ccccc2)C(=O)C1
Ans. 0.00021

###

Settings: in 1,4-dioxane, 303.15 K
measuredMetric: solubility (mole fraction)
Respond with the number and no other words.

Qu. # return recorded solubility (mole fraction) for input CC1=NN(c2ccccc2)C(=O)C1
Ans. 0.0483

###

Settings: in sec-butanol, 313.15 K
measuredMetric: solubility (mole fraction)

Qu. # return recorded solubility (mole fraction) for input CC1=NN(c2ccccc2)C(=O)C1
Ans. 0.0404

###

Details: in water, 293.15 K
measuredMetric: solubility (mole fraction)
Respond with the number and no other words.

Qu. # return recorded solubility (mole fraction) for input CC1=NN(c2ccccc2)C(=O)C1
Ans. 0.000163

###

Details: in acetone, 313.15 K
measuredMetric: solubility (mole fraction)
Respond with the number and no other words.

Qu. # return recorded solubility (mole fraction) for input CC1=NN(c2ccccc2)C(=O)C1
Ans. 0.0563

###

Conditions: in 1,4-dioxane, 288.15 K
measuredMetric: solubility (mole fraction)
Respond with the number and no other words.

Qu. # return recorded solubility (mole fraction) for input CC1=NN(c2ccccc2)C(=O)C1
Ans. 0.027

###

Details: in isopropanol, 303.15 K
measuredMetric: solubility (mole fraction)
Respond with the number and no other words.

Qu. # return recorded solubility (mole fraction) for input CC1=NN(c2ccccc2)C(=O)C1
Ans. 0.0268

###

Conditions: in isobutanol, 313.15 K
measuredMetric: solubility (mole fraction)

Qu. # return recorded solubility (mole fraction) for input CC1=NN(c2ccccc2)C(=O)C1
Ans. 0.0398

###

Conditions: in n-pentanol, 313.15 K
measuredMetric: solubility (mole fraction)
Respond with the number and no other words.

Qu. # return recorded solubility (mole fraction) for input CC1=NN(c2ccccc2)C(=O)C1
Ans. 0.05

meta.source: BigSolDB 2.1
